# study_target: Carbonic anhydrase 12 (Homo sapiens, UniProt O43570)
# Sequence (O43570 whole entry): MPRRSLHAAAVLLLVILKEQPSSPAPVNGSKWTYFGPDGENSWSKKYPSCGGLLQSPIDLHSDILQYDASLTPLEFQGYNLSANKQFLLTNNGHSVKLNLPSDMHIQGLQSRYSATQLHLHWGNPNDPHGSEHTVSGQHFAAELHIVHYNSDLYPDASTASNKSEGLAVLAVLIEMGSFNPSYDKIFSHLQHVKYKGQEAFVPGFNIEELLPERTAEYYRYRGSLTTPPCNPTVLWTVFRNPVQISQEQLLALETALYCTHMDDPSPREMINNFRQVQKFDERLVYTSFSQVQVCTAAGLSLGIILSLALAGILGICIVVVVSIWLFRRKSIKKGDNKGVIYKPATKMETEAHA
# assay_notes: Inhibition of recombinant human membrane bound carbonic anhydrase 12 by stopped-flow CO2 hydration assay
Measured Ki values are reported for all entries that follow.
measured_endpoint: Ki (nM)

NS(=O)(=O)c1ccc(-c2nn3cc(-c4cccc([N+](=O)[O-])c4)nc3s2)cc1 50.4
NS(=O)(=O)c1ccc(-c2nn3cc(-c4ccc([N+](=O)[O-])cc4)nc3s2)cc1 48.1
NS(=O)(=O)c1ccc(-c2nn3cc(-c4ccc(-c5ccccc5)cc4)nc3s2)cc1 62.1
Cc1ccc(-c2csc3nc(-c4ccc(S(N)(=O)=O)cc4)nn23)cc1 23.8
NS(=O)(=O)c1ccc(-c2nn3cc(-c4ccccc4)nc3s2)cc1 4.1
NS(=O)(=O)c1ccc(-c2nc3scc(-c4ccccc4)n3n2)cc1 147
COc1ccc(-c2csc3nc(-c4ccc(S(N)(=O)=O)cc4)nn23)cc1 22.3
NS(=O)(=O)c1ccc(-c2nc3scc(-c4ccc(F)cc4)n3n2)cc1 359
COc1ccc(-c2cn3nc(-c4ccc(S(N)(=O)=O)cc4)sc3n2)cc1 3.8
NS(=O)(=O)c1ccc(-c2nc3scc(-c4cccc(Br)c4)n3n2)cc1 41.4
NS(=O)(=O)c1ccc(-c2nc3scc(-c4cccc([N+](=O)[O-])c4)n3n2)cc1 362
NS(=O)(=O)c1ccc(-c2nn3cc(-c4cccc(Br)c4)nc3s2)cc1 75.6
NS(=O)(=O)c1ccc(-c2nc3scc(-c4ccc(Br)cc4)n3n2)cc1 302
NS(=O)(=O)c1ccc(-c2nc3scc(-c4ccc([N+](=O)[O-])cc4)n3n2)cc1 35.1
Cc1ccc(-c2cn3nc(-c4ccc(S(N)(=O)=O)cc4)sc3n2)cc1 3.3
NS(=O)(=O)c1ccc(-c2nc3scc(-c4ccc(Cl)cc4)n3n2)cc1 26.7
NS(=O)(=O)c1ccc(-c2nn3cc(-c4ccc(Cl)cc4)nc3s2)cc1 80.1
NS(=O)(=O)c1ccc(-c2nn3cc(-c4ccc(F)cc4)nc3s2)cc1 79.4
NS(=O)(=O)c1ccc(-c2nn3cc(-c4ccc(Br)cc4)nc3s2)cc1 84.8
NS(=O)(=O)c1ccc(-c2nc3scc(-c4ccc(-c5ccccc5)cc4)n3n2)cc1 297

These entries and their values trace back to ChEMBL document CHEMBL3875222.
